Reference source for all entries: ChEMBL document CHEMBL2218924

# Test target: Protein kinase C epsilon type (Homo sapiens) (UniProt Q02156)
# Sequence (Q02156 whole entry): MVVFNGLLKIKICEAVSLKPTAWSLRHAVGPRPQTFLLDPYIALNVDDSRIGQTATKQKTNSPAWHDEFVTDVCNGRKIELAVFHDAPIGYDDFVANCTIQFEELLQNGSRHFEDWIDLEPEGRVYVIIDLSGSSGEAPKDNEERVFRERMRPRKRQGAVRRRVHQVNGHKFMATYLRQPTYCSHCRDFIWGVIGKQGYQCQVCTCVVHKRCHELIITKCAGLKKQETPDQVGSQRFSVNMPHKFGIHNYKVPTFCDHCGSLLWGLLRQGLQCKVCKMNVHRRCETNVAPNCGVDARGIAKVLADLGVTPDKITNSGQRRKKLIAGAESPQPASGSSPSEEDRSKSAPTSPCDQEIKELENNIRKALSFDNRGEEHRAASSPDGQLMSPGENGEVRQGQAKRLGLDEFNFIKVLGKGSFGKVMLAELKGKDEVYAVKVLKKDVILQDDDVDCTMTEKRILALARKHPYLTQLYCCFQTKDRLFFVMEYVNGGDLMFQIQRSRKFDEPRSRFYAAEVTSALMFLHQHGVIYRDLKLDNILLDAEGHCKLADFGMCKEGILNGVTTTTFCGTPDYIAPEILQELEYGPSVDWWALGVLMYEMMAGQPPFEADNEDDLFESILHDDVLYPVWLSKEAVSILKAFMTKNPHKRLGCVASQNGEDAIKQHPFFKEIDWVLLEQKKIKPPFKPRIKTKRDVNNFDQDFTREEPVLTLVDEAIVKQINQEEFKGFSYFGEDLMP
# Experimental parameters: at 1 µM
# note: exactly 90% is not below, so it is 0 (no); use 1 (yes) for residual activity strictly under it

| Structure | Classification |
| --- | --- |
| CO[C@H]1[C@@H](OC)C[C@H](C)[C@@H](OC)C2=CC(=O)C=C(NC(=O)/C(C)=C/C=C/[C@H](OC)[C@@H](OC(N)=O)/C(C)=C/[C@@H]1C)C2=O | 0 (no) |

Given the entry O=C(Nc1cccc(Nc2nccc(Nc3cccc(C(F)(F)F)c3)n2)c1)C1CC1 , would its reported residual activity be below 90%?
0 (no)

Given the entry CC(C)n1cnc2/c(=N/c3cccc(Cl)c3)nc(NCCO)[nH]c21 , would its reported residual activity be below 90%?
1 (yes)

Given the entry CC[n+]1c(/C=C/N(C)c2ccccc2)n(-c2ccccc2)c2ccc(-c3nc4ccccc4s3)cc21 , would its reported residual activity be below 90%?
0 (no)

Given the entry O=[N+]([O-])c1ccc(-c2nc(-c3ccc(F)cc3)c(-c3ccncc3)[nH]2)cc1 , would its reported residual activity be below 90%?
0 (no)

Given the entry Cc1ccc(NC2=CC(=O)c3sc(C)nc3C2=O)cc1 , would its reported residual activity be below 90%?
1 (yes)

---

# Test target: Dual specificity tyrosine-phosphorylation-regulated kinase 2 (Homo sapiens) (UniProt Q92630)
# Sequence (Q92630 whole entry): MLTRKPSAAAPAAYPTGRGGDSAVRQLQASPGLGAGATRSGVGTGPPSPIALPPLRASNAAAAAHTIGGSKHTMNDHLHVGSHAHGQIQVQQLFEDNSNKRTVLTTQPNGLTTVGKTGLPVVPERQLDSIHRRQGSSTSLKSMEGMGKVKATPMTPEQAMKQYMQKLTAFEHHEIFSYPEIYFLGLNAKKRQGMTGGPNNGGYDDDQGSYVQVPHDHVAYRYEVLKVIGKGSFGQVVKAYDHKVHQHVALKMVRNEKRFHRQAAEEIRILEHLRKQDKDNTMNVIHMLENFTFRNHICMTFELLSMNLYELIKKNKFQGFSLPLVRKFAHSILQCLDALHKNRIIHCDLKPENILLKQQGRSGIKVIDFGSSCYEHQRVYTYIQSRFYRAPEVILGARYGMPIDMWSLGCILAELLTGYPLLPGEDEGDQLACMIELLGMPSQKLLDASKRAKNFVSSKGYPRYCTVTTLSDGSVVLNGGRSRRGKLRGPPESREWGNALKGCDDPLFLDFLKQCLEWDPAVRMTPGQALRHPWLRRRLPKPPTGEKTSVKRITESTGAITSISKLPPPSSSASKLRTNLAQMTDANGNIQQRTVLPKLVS
# Experimental parameters: at 1 µM
Reported endpoint: residual activity
Please don't drop the unit; write it after the number.

Below are worked cases with known answers.
| Structure | residual activity |
| --- | --- |
| CCN(CC)CCCCN1c2ccccc2Oc2ccc(Cl)cc21 | 105% |
| COc1cccc(-c2cc(=O)c3ccccc3o2)c1N | 100% |
| O=C1NC(=O)c2c1c1c3ccccc3[nH]c1c1[nH]c3cc(Br)ccc3c21 | 100% |
| N#C/C(=C(\N)Sc1ccc(N)cc1)c1ccccc1C(F)(F)F | 105% |
| CN(C)c1ccc(/C=C2\C(=O)Nc3ccccc32)cc1 | 98% |

Fill in: residual activity of Nc1ccc2ncnc(NCCc3ccc(Oc4ccccc4)cc3)c2c1 is ___
103%

Fill in: residual activity of CO[C@@H]1[C@H](N(C)C(=O)c2ccccc2)C[C@H]2O[C@]1(C)n1c3ccccc3c3c4c(c5c6ccccc6n2c5c31)C(=O)NC4 is ___
90%

Fill in: residual activity of COc1cc2ncc(-c3ccccc3)nc2cc1OC is ___
93%

Fill in: residual activity of COc1ccc(OC)c2c(=S)c3ccccc3[nH]c12 is ___
90%

Fill in: residual activity of COc1cc2ncnc(N3CCN(C(=O)Nc4ccc(Oc5ccccc5)cc4)CC3)c2cc1OC is ___
92%

Fill in: residual activity of Cc1nc2cc3nc(-c4cccs4)cnc3cc2n1C is ___
108%

---

In this section we review reported residual activity values for a set of compounds.
# Test target: Mast/stem cell growth factor receptor Kit (Homo sapiens) (UniProt P10721)
# Sequence (P10721 whole entry): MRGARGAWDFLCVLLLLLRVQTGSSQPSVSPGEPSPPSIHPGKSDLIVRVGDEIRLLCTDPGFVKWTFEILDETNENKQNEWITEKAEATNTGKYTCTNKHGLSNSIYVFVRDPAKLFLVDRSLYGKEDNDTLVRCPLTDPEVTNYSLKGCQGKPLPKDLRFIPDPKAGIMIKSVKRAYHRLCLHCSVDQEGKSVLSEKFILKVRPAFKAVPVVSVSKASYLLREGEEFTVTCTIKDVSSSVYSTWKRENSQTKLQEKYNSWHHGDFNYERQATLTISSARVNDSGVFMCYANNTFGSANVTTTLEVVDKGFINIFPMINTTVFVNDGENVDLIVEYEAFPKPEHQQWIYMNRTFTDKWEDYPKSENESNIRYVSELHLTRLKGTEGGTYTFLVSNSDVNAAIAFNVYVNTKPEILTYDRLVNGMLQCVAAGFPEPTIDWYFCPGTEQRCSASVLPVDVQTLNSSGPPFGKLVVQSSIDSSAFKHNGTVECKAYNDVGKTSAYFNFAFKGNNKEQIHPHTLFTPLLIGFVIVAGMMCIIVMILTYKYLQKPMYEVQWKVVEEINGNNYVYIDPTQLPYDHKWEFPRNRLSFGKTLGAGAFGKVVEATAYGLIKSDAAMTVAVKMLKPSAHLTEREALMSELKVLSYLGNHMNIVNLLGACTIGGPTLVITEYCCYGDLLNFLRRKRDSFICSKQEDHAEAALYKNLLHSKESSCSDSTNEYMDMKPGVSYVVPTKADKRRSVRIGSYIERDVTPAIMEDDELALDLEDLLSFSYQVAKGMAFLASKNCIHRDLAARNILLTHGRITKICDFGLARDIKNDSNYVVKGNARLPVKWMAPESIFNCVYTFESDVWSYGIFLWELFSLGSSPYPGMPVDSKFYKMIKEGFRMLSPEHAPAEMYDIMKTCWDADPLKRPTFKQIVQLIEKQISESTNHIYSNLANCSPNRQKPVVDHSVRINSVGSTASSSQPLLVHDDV
# Experimental parameters: at 10 µM
Answer in %, number only, no unit symbol.

Fill in: residual activity of NC(=O)c1ccc2[nH]c(-c3ccc(Oc4ccc(Cl)cc4)cc3)nc2c1 is ___
90

Fill in: residual activity of N#C/C(=C(\N)Sc1ccc(N)cc1)c1ccccc1C(F)(F)F is ___
105

Fill in: residual activity of O=C(Nc1cccc(Nc2nccc(Nc3cccc(C(F)(F)F)c3)n2)c1)C1CC1 is ___
46
